Values from ChEMBL document CHEMBL1201862

# Tested on: MDA-N
# Assay Notes: NCI tumour cell line growth inhibition, 48 h
Active and inactive are the calls of the source. Cut-off read from the data, not from the text of the source: active = GI50 up to about 1.1 µM and inactive = higher.
The categories you may choose from are active, inactive

Example entries and their recorded answers appear below.
1. C/C(=N\NC(=S)N1CCN(c2ccccn2)CC1)c1ccccn1 active
2. Nc1n[nH]c2nc3ccccc3nc12 inactive

For the next question, use this compound.
In: Hi team, can someone confirm the assay call for CNC(=O)N1CCN(C(=O)NC)CCN(C(=O)NC)CC1 ?
Out: inactive

* * *

# System: HCT-116
# Assay Notes: NCI tumour cell line growth inhibition, 48 h
Calls of active or inactive are those of the source. Cut-off read from the data, not from the text of the source: active = GI50 up to about 1.1 µM and inactive = higher.
The categories you may choose from are Y (active), N (inactive)

Compound	Tested Target	Category
CC(=O)C(C)(C)CCC(C)(C)C(C)=O	HCT-116	N
Cc1cc2c(-c3ccccc3)cc(=O)[nH]c2cc1N	HCT-116	N
O=C1C(Br)=CC2(C=C1Br)CCNC1=C2C(=O)c2[nH]cnc2C1=O	HCT-116	N
O=C1C(C(c2ccc([N+](=O)[O-])cc2)N2CCOCC2)=C(O)C(c2ccccc2)N1c1ccccc1 (stereo unspecified)	HCT-116	N
Cc1nc2c(nc1C)-c1[nH]c3c(c1C(=O)C2=O)CCCC3=O	HCT-116	N

In: Hi team, can someone confirm the assay call for COCOCc1cc(OCc2ccccc2)c(OC)cc1Br ?
Out: N

In: Hi team, can someone confirm the assay call for CC(=O)OCC1OC(n2c(-c3ccc(C)cc3)cc(-c3ccco3)c(C#N)c2=S)C(OC(C)=O)C(OC(C)=O)C1OC(C)=O (stereo unspecified) ?
Out: N

In: Hi team, can someone confirm the assay call for O=C1OC(C(O)C(O)C(O)CO)C(O)C1O (stereo unspecified) ?
Out: N

In: Hi team, can someone confirm the assay call for O=c1[nH]c2c(c3ccccc13)CCc1ccccc1-2 ?
Out: N

In: Hi team, can someone confirm the assay call for CCc1nc2cc(/N=N/c3c(O)ccc4ccccc34)ccc2[nH]1 ?
Out: N

In: Hi team, can someone confirm the assay call for Cn1cnc([N+](=O)[O-])c1Sc1nc2cccnc2s1 ?
Out: N

In: Hi team, can someone confirm the assay call for COc1cccc(C2CC(=O)c3cccn32)c1 (stereo unspecified) ?
Out: N

* * *

Hi there, I'd appreciate the recorded GI50 for every entry that follows.
# System: SK-OV-3
# Assay Notes: NCI tumour cell line growth inhibition, 48 h
Calls of active or inactive are those of the source. Cut-off read from the data, not from the text of the source: active = GI50 up to about 1.1 µM and inactive = higher.

Molecule	GI50
CCOP(=O)(OCC)/C(C#N)=C/c1cnc(C)[nH]1	20.5 µM (inactive)

Batch of 4 molecules: report GI50 for each.
1. Cc1nc2c(N)ncnc2o1
2. OC(c1nc2ccccc2[nH]1)C(O)C(O)C(O)c1nc2ccccc2[nH]1 (stereo unspecified)
3. COc1nc2ccc(CNc3ccc(C(=O)NC(CCC(=O)O)C(=O)O)cc3)cc2nc1OC (stereo unspecified)
4. CC[C@H]1CN(C)[C@H]2Cc3c([nH]c4ccccc34)C(=O)C[C@H]1C2C(=O)OC (stereo partly specified)

Out:
> 100 µM (inactive)
> 100 µM (inactive)
> 100 µM (inactive)
> 100 µM (inactive)

Batch of 8 molecules: report GI50 for each.
1. Cc1ccc(/N=N\c2c(O)c(S(=O)(=O)O)cc3cc(S(=O)(=O)O)ccc23)c(C)c1
2. C=CC1=CC(C)C[C@]1(O)C(=O)OC (stereo partly specified)
3. C=CCP(=O)(CC=C)C(Cl)Cl
4. COc1ccc2c(c1)[n+]([O-])c(-c1ccc([N+](=O)[O-])cc1)c(N)[n+]2[O-]
5. c1ccc2cc3n[se]nc3cc2c1
6. c1ccc(Cc2cc(-c3ccccc3)[nH]n2)cc1
7. CC1C(=O)CCC1C(Sc1ccccc1)(Sc1ccccc1)Sc1ccccc1 (stereo unspecified)
8. Cc1ccc(-c2c(C#N)c(-c3ccc(N(C)C)cc3)c(C#N)c(=O)n2NS(=O)(=O)c2ccccc2)cc1

Out:
["> 100 µM (inactive)", "> 100 µM (inactive)", "> 100 µM (inactive)", "> 100 µM (inactive)", "> 100 µM (inactive)", "32.4 µM (inactive)", "80.2 µM (inactive)", "62.1 µM (inactive)"]

Batch of 5 molecules: report GI50 for each.
1. O=C(Nc1c(O)[nH]c(=S)[nH]c1=O)c1ccccc1
2. COc1ccc2oc(=N)c(C(=O)NCc3ccccc3)cc2c1
3. O=C(N/N=C\c1ccc([N+](=O)[O-])cc1)Nc1cccc2ccccc12
4. Clc1ccc(-c2c3nc(c(-c4ccc(Cl)cc4)c4ccc([nH]4)c(-c4ccc(Cl)cc4)c4nc(c(-c5ccc(Cl)cc5)c5ccc2[nH]5)C=C4)C=C3)cc1
5. CC(=O)C(C)(C)CCC(C)(C)C(C)=O

Out:
> 100 µM (inactive)
20.3 µM (inactive)
4.5 µM (inactive)
> 100 µM (inactive)
> 100 µM (inactive)

Batch of 4 molecules: report GI50 for each.
1. O=[N+]([O-])c1ccc(C(Nc2ccccc2)P(c2ccccc2)c2ccccc2)cc1 (stereo unspecified)
2. Cc1ccc(SCC(CF)OC(C)n2cnc3c(Cl)nc(N)nc32)cc1 (stereo unspecified)
3. Cc1ccccc1N(CCC#N)C1=NN(C(=O)CC(=O)Nc2ccc(Cl)cc2)C(c2ccccc2)C1 (stereo unspecified)
4. COc1cc(-c2[o+]c3cc(O)cc(OC4OC(CO)C(O)C(O)C4O)c3cc2OC2OC(CO)C(O)C(O)C2O)cc(OC)c1O (stereo unspecified)

Out:
["> 100 µM (inactive)", "37.2 µM (inactive)", "> 100 µM (inactive)", "> 100 µM (inactive)"]
